result-type: glass transition temperature (°C)
Just the number in °C, nothing appended.

# compound, result-type, reading
data = [
    ("*Oc1ccc(CC(NC(=O)CCc2ccc(OC(=O)CCC(C)CC(*)=O)cc2)C(=O)OC)cc1 (repeat unit)", "glass transition temperature", 53.00),
]

For this compound ( *c1ccc(-c2ccc(N3C(=O)c4ccc(Oc5ccc(Oc6ccc7c(c6)C(=O)N(*)C7=O)cc5)cc4C3=O)c(OC)c2)cc1OC (repeat unit) ), measured glass transition temperature is 274.00

Value of measured glass transition temperature for the entry *Cc1c(C)c(C)c(CNC(=O)CCCCCC(C)CC(=O)N*)c(C)c1C (repeat unit) : 211.00

# compound *CCCCOc1cccc(C(=O)OC(=O)c2cccc(O*)c2)c1 (repeat unit) ; its glass transition temperature = 20.00

----------
glass transition temperature for assorted molecules
Numeric only. Scale: °C

// solved cases for glass transition temperature follow
# molecule, glass transition temperature, °C
data = [
    ("*Oc1ccc(Oc2ccc(C(=O)c3ccc(*)cc3)cc2)cc1-c1ccc(Oc2ccccc2)cc1 (repeat unit)", 146.00),
    ("*CCCCCCCCCCCCCCCCOC(=O)CCCCCCC(=O)O* (repeat unit)", -26.00),
    ("*CCCCCCCCOc1cccc(NC(=O)c2cccc(C(=O)Nc3cccc(O*)c3)c2)c1 (repeat unit)", 117.00),
]

Lab book: glass transition temperature of */C=C/C1CC(*)C(C#N)(CC)C1 (repeat unit) noted as 134.00

The recorded glass transition temperature for *Nc1cc(NC(=O)c2cc(OCCCN(C)c3ccc(/N=N/c4ccc(S(C)(=O)=O)cc4)cc3)cc(C(*)=O)c2)cc(C(=O)OCCCN(C)c2ccc(/N=N/c3ccc(S(C)(=O)=O)cc3)cc2)c1 (repeat unit) is 168.00

----------
Range-based classes on measured glass transition temperature: lower segment = under 60 °C, middle segment = from 60 °C up to 200 °C, upper segment = 200 °C and over

Consider the worked cases shown below.
# compound, assigned-class
data = [
    ("*C(=O)Nc1cccc(NC(=O)c2ccc3c(c2)C(=O)N(c2ccc(Oc4ccc(C5(c6ccc(Oc7ccc(N8C(=O)c9ccc(*)cc9C8=O)cc7)cc6)NC(=O)c6ccccc65)cc4)cc2)C3=O)c1 (repeat unit)", "upper segment"),
    ("*CCCCCCCCCCOc1ccc(/C=C/c2ccc(OCCCCCCCCCCOP(=O)(O*)OCCCCCCCCCCOc3ccc(/N=N/c4ccc(-c5ccccc5)cc4)cc3)cc2)cc1 (repeat unit)", "lower segment"),
    ("*Oc1ccc(SSc2ccc(*)cc2)cc1 (repeat unit)", "middle segment"),
    ("*c1ccc(Oc2ccc(-c3ccc(Oc4ccc(N5C(=O)c6ccc(Oc7ccc(C8(c9ccc(Oc%10ccc%11c(c%10)C(=O)N(*)C%11=O)cc9)CCCCCCCCCCC8)cc7)cc6C5=O)cc4)cc3C)c(C)c2)cc1 (repeat unit)", "upper segment"),
    ("*c1cccc(OCCCCCCCCCCOc2cccc(N3C(=O)c4ccc(-c5ccc6c(c5)C(=O)N(*)C6=O)cc4C3=O)c2)c1 (repeat unit)", "middle segment"),
    ("*CC(CC)(CO*)COC(=O)C(=C)C (repeat unit)", "lower segment"),
]

*Q* // return the class label for *OC(=O)C(C)NC(=O)CCCCCCCCC(=O)NC(C)C(=O)OC1COC2C(*)COC12 (repeat unit)
*A* lower segment

----------
result-type: glass transition temperature (°C)
Use °C as the unit, but write only the number.

Before answering, review these 8 worked examples.
# compound, unit-tag, glass transition temperature
records = [
    ("*CC(*)(C)C(=O)OCCN(CC)c1ccc(/N=N/c2ccc([N+](=O)[O-])cc2)cc1 (repeat unit)", "°C", 126.00),
    ("*CC(*)(C)C(=O)OCC[N+](C)(C)CCCCCCC (repeat unit)", "°C", -44.00),
    ("*CCCCCCCCc1nc2cc(-c3ccc4[nH]c(*)nc4c3)ccc2[nH]1 (repeat unit)", "°C", 234.00),
    ("*CCCCCCCCOc1ccc(/C=C/c2cc(OCCCCCCCC)c(/C=C/c3ccc(O*)cc3)cc2OCCCCCCCC)cc1 (repeat unit)", "°C", 130.00),
    ("*c1cccc(P(=O)(c2ccccc2)c2cccc(N3C(=O)c4ccc(NC(=O)OCCOc5ccc(P(=O)(c6ccccc6)c6ccc(OCCOC(=O)Nc7ccc8c(c7)C(=O)N(*)C8=O)cc6)cc5)cc4C3=O)c2)c1 (repeat unit)", "°C", 218.00),
    ("*Oc1ccc(NC(=O)c2ccc3cc(C(=O)Nc4ccc(Oc5ccc(C6(c7ccc(*)cc7)CC7CCC6C7)cc5)cc4)ccc3c2)cc1 (repeat unit)", "°C", 276.00),
    ("*CCC(C)(C)CC(C)COC(=O)CCCCC(=O)O* (repeat unit)", "°C", -70.00),
    ("*Oc1ccc(C2(c3ccc(OC(*)=O)cc3C)CC3CC2C2C4CCC(C4)C32)cc1C (repeat unit)", "°C", 232.00),
]

Input *CCSSSS* (repeat unit) . Output glass transition temperature: -24.00

----------
Listed here are molecules together with their documented glass transition temperature.
Kindly provide the numeric value in °C only, without the unit symbol.

# example entries with known answers
# molecule, result-type, reading
data = [
    ("*c1cccc(P(=O)(c2ccccc2)c2cccc(-n3c(=O)c4cc5c(=O)n(*)c(=O)c5c(-c5ccccc5)c4c3=O)c2)c1 (repeat unit)", "glass transition temperature", 325.00),
    ("*CC(*)(C)C(=O)Oc1ccc(C(=O)Oc2ccc(OC)cc2)cc1 (repeat unit)", "glass transition temperature", 77.00),
    ("*CC(*)c1ccc(O)c(OC)c1 (repeat unit)", "glass transition temperature", 142.00),
]

Lab book: glass transition temperature of *c1ccc(Nc2ccc(C3(c4ccc(Nc5ccc(S(*)(=O)=O)cc5)cc4)c4ccccc4-c4ccccc43)cc2)cc1 (repeat unit) noted as 221.00

----------
result-type: glass transition temperature (°C)
Answer format: numeric, °C implied, no suffix.

Reference set (10 entries):
# compound, glass transition temperature / °C
rows = [
    ("*Nc1ccc(C(c2ccc(NC(=O)c3cc(C(*)=O)cc(C(C)(C)C)c3)cc2)(P2(=O)Oc3ccccc3-c3ccccc32)P2(=O)Oc3ccccc3-c3ccccc32)cc1 (repeat unit)", 235.00),
    ("*c1ccc2c(c1)C(=O)N(c1ccc(OCCN(CCOc3ccc(N4C(=O)c5ccc(C(*)(C(F)(F)F)C(F)(F)F)cc5C4=O)cc3)c3ccccc3)cc1)C2=O (repeat unit)", 170.00),
    ("*Oc1ccc(S(=O)c2ccc(Oc3ccc(C(C)(C)c4ccc(*)cc4)cc3)cc2)cc1 (repeat unit)", 165.00),
    ("*C(=O)Nc1cccc(NC(=O)c2ccc3c(c2)C(=O)N(c2ccc(Oc4cccc5c(N6C(=O)c7ccc(*)cc7C6=O)cccc45)cc2)C3=O)n1 (repeat unit)", 293.00),
    ("*Oc1ccc(CC(NC(=O)Cc2ccc(OC(=O)CC(C)CCC(*)=O)cc2)C(=O)OCC)cc1 (repeat unit)", 63.00),
    ("*CC(*)(C)C(=O)OCc1cc(Cl)cc(Cl)c1 (repeat unit)", 30.0),
    ("*Oc1ccc(C2(c3ccc(OC(*)=S)cc3)CCCCC2)cc1 (repeat unit)", 155.00),
    ("*Oc1cccc(OC(=O)c2ccc([Si](C)(C)c3ccc(C(*)=O)cc3)cc2)c1 (repeat unit)", 134.00),
    ("*Oc1ccc2ccc(Oc3ccc(/C(=N/c4ccc(Oc5ccc(/N=C(\\c6ccccc6)c6ccc(*)cc6)cc5)cc4)c4ccccc4)cc3)cc2c1 (repeat unit)", 165.00),
    ("*C(=O)Nc1ccc(Oc2ccc(C3(c4ccc(Oc5ccc(NC(=O)c6ccc7c(c6)C(=O)N(c6ccc(C)c(N8C(=O)c9ccc(*)cc9C8=O)c6)C7=O)cc5)cc4)NC(=O)c4ccccc43)cc2)cc1 (repeat unit)", 315.00),
]

Sample *Oc1ccc(Oc2ccc(Oc3ccc(C(=O)c4ccc(*)cc4)cc3)cc2)cc1 (repeat unit) ; glass transition temperature observed: 150.50

GET /value?item= */C=C/c1ccc(*)c(OCc2cc(OCc3cc(OCCC(C)CCCC(C)C)cc(OCCC(C)CCCC(C)C)c3)cc(OCc3cc(OCC(CC)CCCC)cc(OCC(CC)CCCC)c3)c2)c1 (repeat unit) &field=glass transition temperature returns 223.00

# glass transition temperature of *CC(*)(C)c1ccc(C)cc1 (repeat unit) = 176.00

Form: compound = *CC(*)C(=O)OCF (repeat unit) ; glass transition temperature = 15.00

----------
result-type: glass transition temperature
Answer format: value, then unit.

Guide cases for glass transition temperature, answers given:
# compound, result-type, reading
data = [
    ("*c1ccc(Oc2ccc(C(c3ccc(Oc4ccc(-c5ccc(*)s5)cc4C(F)(F)F)cc3)(C(F)(F)F)C(F)(F)F)cc2)c(C(F)(F)F)c1 (repeat unit)", "glass transition temperature", "155.00 °C"),
    ("*c1ccc(-c2sc(-c3cc(CCCCCCCC)c(*)s3)cc2CCCCCCCC)cc1 (repeat unit)", "glass transition temperature", "50.40 °C"),
]

The compound *CC(*)c1ccc(B(Oc2ccc(-c3ccc(N(C)C)cc3)c3cccnc23)c2ccc(C(C)(C)C)cc2)cc1 (repeat unit) showed glass transition temperature equal to 230.00 °C
